These measurements were taken from PubChem BioAssay (NCI).

Listed here: items and their measured growth inhibition.
- assay.remarks: NCI Yeast Anticancer Drug Screen. Data for the mlh1 rad18 strain (AID 175)
- condition.info: S. cerevisiae mlh1 rad18 strain growth inhibition; at 50.0 µM; hits give high values
The panel holds about 79,000 compounds, 15% with a hit somewhere; the sample as a whole holds those more often.

>  <compound>
CCCCCCCCS(=O)(=O)NC

>  <growth inhibition [%]>
5.7

$$$$
>  <compound>
CC(C)CC(=O)OC1=C(O)C(=O)C(OC(=O)CC(C)C)=C(O)C1=O

>  <growth inhibition [%]>
5.65

$$$$
>  <compound>
CN(C)CCN(C(=Nc1ccccc1)N1CCCC1)c1ccccc1

>  <growth inhibition [%]>
4.5

$$$$
>  <compound>
CCOC(=O)c1c(OC)c(-c2ccccc2)c(=O)n2c3ccccc3n(C)c12

>  <growth inhibition [%]>
9.9

$$$$
>  <compound>
Cc1onc(-c2c(F)cccc2Cl)c1C(=O)Nc1cc2cc([N+](=O)[O-])ccc2oc1=O

>  <growth inhibition [%]>
12.5

$$$$
>  <compound>
CN(C)CC1CCC/C(=C\c2ccc(N(C)C)cc2)C1=O (stereo not drawn)

>  <growth inhibition [%]>
-34.3

$$$$
>  <compound>
CSCCC(O)C(=O)O (stereo not drawn)

>  <growth inhibition [%]>
17

$$$$
>  <compound>
C=CCOC(=O)/C=C/C

>  <growth inhibition [%]>
-1.35

$$$$
>  <compound>
CCC(=O)Oc1ccc(C(C)(C)CC(C)(C)C)cc1

>  <growth inhibition [%]>
51.7

$$$$
>  <compound>
Fc1nc2nc(C(F)(F)F)[nH]c2nc1F

>  <growth inhibition [%]>
7.6

$$$$
>  <compound>
Nc1nc(SCc2ccccc2)c2ncn(Cc3ccccc3)c2n1

>  <growth inhibition [%]>
9.55

$$$$
>  <compound>
COc1cc(N)c(OC)nn1

>  <growth inhibition [%]>
-10.4

$$$$
>  <compound>
O=c1oc2nc(-c3ccccc3)[nH]c(=O)c2c(O)c1Cc1ccccc1

>  <growth inhibition [%]>
26.9

$$$$
>  <compound>
OCC(O)COc1ccc(OCc2ccccc2)cc1 (stereo not drawn)

>  <growth inhibition [%]>
-20.3

$$$$
>  <compound>
COC(=O)c1ccccc1N=NNc1ccc2c(=O)c3ccccc3[nH]c2c1

>  <growth inhibition [%]>
66

$$$$
>  <compound>
CC(c1ccccc1)n1cnc2c(=S)nc[nH]c21 (stereo not drawn)

>  <growth inhibition [%]>
-9.95

$$$$
>  <compound>
COC(=O)C1(CCCCCBr)CCCCCCCCCCC1=O (stereo not drawn)

>  <growth inhibition [%]>
-34.5

$$$$
>  <compound>
CSc1[nH]c2ncnc(Cl)c2c1C#N

>  <growth inhibition [%]>
21.7

$$$$

###

Listed here: items and their measured growth inhibition.
- assay.remarks: NCI Yeast Anticancer Drug Screen. Data for the mlh1 rad18 strain (AID 175)
- condition.info: S. cerevisiae mlh1 rad18 strain growth inhibition; at 50.0 µM; hits give high values
This is part of a sample that, as a whole, favours compounds with a hit. Of some 79,000 tested, about 15% had one in any assay. Calls of active or inactive are those of the source. Rule as the data show it: active = growth inhibition above about 70%; inactive = the rest. Where a SMILES comes first, the peptide text is derived from it.
reported.metric: growth inhibition

>  <compound>
CC(=O)NC(C(=O)NC(C)C(=O)N1CCCC1C(=O)O)C(C)C (stereo not drawn) (Ac-Val-Ala-Pro-OH; configuration not given here)

>  <reported.metric>
growth inhibition

>  <value.reported>
-3.65% (inactive)

$$$$
>  <compound>
O=C1C(=O)c2ccccc2C(O)=C1CN(CCO)CCO

>  <reported.metric>
growth inhibition

>  <value.reported>
26.2% (inactive)

$$$$
>  <compound>
C/C(=N/NC(N)=O)C1CCC(C)CC1 (stereo not drawn)

>  <reported.metric>
growth inhibition

>  <value.reported>
31% (inactive)

$$$$
